# assay_protocol: label from the status in PepcDB records
outcome_measure: protein production

{"columns": ["sequence", "outcome_measure", "value"],
 "data": [
  ["MSESNISGPLAGEYRDLAVYGRLATVTMIWGGTFVAGRYLAGGLSPLLAASLRFLLASLALLGFMAVARIPLVRPSLRQFGQLALLGFFGIFFYNLCFFLGLEQVKASRASLIVALNPAVIALASWALFKERLGRRKLLGIALCLCGAALVICSRDPSALAAQAGSWQGDLLILGCVLGWGVYSLFSRGLNHSLGSLQTVTCSILLGTLMLCAATLIRGEFDLQAVARLNLAQGLSLLYLGVLGSALAYIWYYDGLRRIGATRCGVFIALNPLTAVILGALVLGEQLSPVMGLGGALILGGIYQCNKPLAGGAKKAIL", "protein production", "failed"],
  ["MTEPCYVMVDQRFDEFVDTARAPEQIVHGFAWTEGPVWLDGAPFFNDIANKRMMRWTKQACAEVALDNSEFANGNTLDGAGQVVSGEHAGRRVIRRPDPTDPSAVEVIAERSEGKRLNSPNEVVVRSDGSVWFTNPPYGINSDIEGYPAESEIGGCFVFCPDPDGTLHAVATEFDKPNELAFSPDECRLFVADSGAIRGAIFPGIDDDLPHHVRVFDVDGVTLSNGRVFAVVAPGAPDGFRVDHEGYVWTSALDGIHCLSPEGALIGKIWLPRQTSIICFGGPPGQTMFITSSDKVYRVESTRRDAAHALRDRERNAE", "protein production", "failed"],
  ["MPNILYKIDNQYPYFTKNEKKIAQFILNYPHKVVNMTSQEIANQLETSSTSIIRLSKKVTPGGFNELKTRLSKFLPKEVTQYNVELVDNESTISLKNKLHSRSKAALSNANETINVAIIDEICDLIKNSETIFIYGYGASFVVATDLYQKLSRIGLNIQLVHETHIFTTMLATRNSNDCVIFISNNGTQSEMQSIAKVIADYHIPIATISSTSDNPVAKQSNIVLTYGQTDENEMRMGATTSLFAQMFTIDILYYRYIALNYQSSLDFITQSKIALDNYRKHLSNIDFKH", "protein production", "failed"]
]}

----------
# assay_protocol: label from the status in PepcDB records

{"columns": ["sequence", "protein production"],
 "data": [
  ["MDESKKISLGQFFTPTHIVKYMIGLMTKNKNASILEPSSGNGVFLDSLIQLGYTNLTSYEIDGDIISHPFVINSSFITSYDKPQYDSIIGNPPYVRWKNLSELQKKELKDNSIWKMYCNSLCDYFYIFIIKSILQLKVGGELIFICPDYFFSTKNAEGLRKFLINNGSFEKIILFNESKVFHGVSSSVVIFKYIKGKNIDNINIINIDSKSPIKSEDIE", "failed"],
  ["MRTLTTLLGNSQKLDGGAMFGNAPRALWSRWMQPDAENRIDLGCRALLVRDGERNVLVEAGIGAFFPPALRQRYGVQEERHVLLDSLAAVGLDDADIDVVLLTHLHFDHAGGLLAAWEEGQPARLLFPNAHFVSGRRHWQRARQPHPRDRASFVPELLDLLQASGRLELLDDGERSAHLGEGWRFHFSEGHTPGQMLPEIAMPDGPVVFSGDLIPGAPWVHLPLTMGYDRFPEGLIEEKERLLDSLIARNGRLVFTHDPCVAMGRVRRDEQERYSLYDTLERVENLEA", "failed"]
]}
